Target: purified bovine lens AR (Bos taurus)
Construct: AR was purified from bovine lens to electrophoretic homogeneity as described; from tissue; host or cells: bovine lens
Assay: AR inhibition with GS-HNE as substrate
Format: biochemical
Conditions: 0.11 mM GS-HNE as substrate; read-out: IC50, reduction of GS-HNE
readout: IC50

Assay purified bovine lens AR (Bos taurus), sample NC(=O)[C@H](O)CO [Compound 21, D-Glyceramide] , IC50 read: ~8 mM

* * *

Molecular target: purified bovine lens AR (Bos taurus, UniProt P16116)
Construct: AR was purified from bovine lens to electrophoretic homogeneity as described; from tissue; host or cells: bovine lens
Assay: AR inhibition screening with GAL and HNE as substrates (differential inhibition)
Assay type: biochemical
readout: IC50 (nM)
One number for each entry, in nM.

// IC50 lookup, compound = CC(/C=C1\SC(=S)N(CC(=O)O)C1=O)=C\c1ccccc1 , result: 500

Recorded values, source paper PMC3760808.
